Entries and their EC50, HEK-Blue IL18R reporter
- testedTarget: T1, IL-18 receptor (IL-18R) on HEK-Blue IL18R reporter cells (UniProt Q13478 19-541; O95256 20-599, limits assumed)
- T1 sequence (looked up) 1: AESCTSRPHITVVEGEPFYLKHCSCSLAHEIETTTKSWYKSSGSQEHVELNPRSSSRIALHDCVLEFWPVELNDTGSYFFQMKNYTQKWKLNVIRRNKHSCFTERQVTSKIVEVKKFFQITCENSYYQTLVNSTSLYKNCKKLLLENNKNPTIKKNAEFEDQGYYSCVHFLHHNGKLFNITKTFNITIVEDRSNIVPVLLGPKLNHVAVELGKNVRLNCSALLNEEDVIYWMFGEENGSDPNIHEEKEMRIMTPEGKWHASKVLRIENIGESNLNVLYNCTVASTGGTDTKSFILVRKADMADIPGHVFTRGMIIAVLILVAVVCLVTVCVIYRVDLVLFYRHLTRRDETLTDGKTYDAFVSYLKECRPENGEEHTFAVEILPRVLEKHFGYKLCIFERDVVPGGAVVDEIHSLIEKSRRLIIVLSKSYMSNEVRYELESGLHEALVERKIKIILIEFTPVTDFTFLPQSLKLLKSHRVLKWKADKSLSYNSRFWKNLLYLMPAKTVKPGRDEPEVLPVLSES
- T1 sequence (looked up) 2: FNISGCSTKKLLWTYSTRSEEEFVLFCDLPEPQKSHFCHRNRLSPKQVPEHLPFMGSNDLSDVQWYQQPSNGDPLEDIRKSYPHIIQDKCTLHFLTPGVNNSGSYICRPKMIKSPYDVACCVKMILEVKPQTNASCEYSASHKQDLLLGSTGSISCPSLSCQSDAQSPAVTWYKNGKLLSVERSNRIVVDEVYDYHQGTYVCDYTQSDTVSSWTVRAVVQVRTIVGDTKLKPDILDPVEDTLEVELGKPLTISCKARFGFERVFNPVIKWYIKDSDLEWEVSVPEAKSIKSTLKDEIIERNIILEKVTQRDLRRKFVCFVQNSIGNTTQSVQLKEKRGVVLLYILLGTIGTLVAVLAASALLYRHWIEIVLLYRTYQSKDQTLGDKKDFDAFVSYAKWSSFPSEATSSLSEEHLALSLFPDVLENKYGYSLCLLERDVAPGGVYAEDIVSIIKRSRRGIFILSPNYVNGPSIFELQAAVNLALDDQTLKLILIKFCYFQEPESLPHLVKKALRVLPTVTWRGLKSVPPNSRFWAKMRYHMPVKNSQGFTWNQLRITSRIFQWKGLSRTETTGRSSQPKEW
- protocolNotes: cell-based or functional assay
// units = nM; emit number, no label

| binder | quantityUnit | EC50, HEK-Blue IL18R reporter |
| --- | --- | --- |
| IL-18 variant SEQ ID NO: 221 (V11I, C38A, K53A, C76A, D110A, C127A) (ligand) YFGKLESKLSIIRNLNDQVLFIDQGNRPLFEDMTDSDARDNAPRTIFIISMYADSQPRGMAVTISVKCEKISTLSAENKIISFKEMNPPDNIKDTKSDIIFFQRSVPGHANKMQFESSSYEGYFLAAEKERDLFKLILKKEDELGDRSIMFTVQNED | nM | 2.02 |

Then this binder:
So for IL-18 variant SEQ ID NO: 226 (V11I, C38A, S55R, C76A, C127A) (ligand) YFGKLESKLSIIRNLNDQVLFIDQGNRPLFEDMTDSDARDNAPRTIFIISMYKDRQPRGMAVTISVKCEKISTLSAENKIISFKEMNPPDNIKDTKSDIIFFQRSVPGHDNKMQFESSSYEGYFLAAEKERDLFKLILKKEDELGDRSIMFTVQNED , the logged EC50, HEK-Blue IL18R reporter turned out to be 1.91
